Target: T1, human fibroblast activation protein (FAP) on WI-38 fibroblasts (human, UniProt Q12884 1-760)
T1 construct: FAP-expressing human WI-38 fibroblasts (ECACC)
Assay: competitive FACS, WI-38 cells, Cy5-labeled peptide as competitor; B = pIC50 7.1 to 8.0
Numbered stars: 1 amine (or outer) side, 2 acyl side, 3 side chain; on linkers, the order of the positions; unused ones are H or OH. Bridge positions count the residues as written; N and C are the ends. Square brackets hold non-standard residues; d marks the D form. Primed or numbered codes have the meaning given here. * marks the point of attachment. tMeBn(LuDOTA-AET) = 1,3,5-trimethylbenzylidene (from 1,3,5-tris(bromomethyl)benzene) bridge with two thioethers to the Cys, its third CH2 carries AET (2-aminoethanethiol, attached through S), whose amine is acylated by DOTA complexing lutet, O=C([O-])CN1CCN(CC(=O)[O-])CCN(CC(=O)NCCSCc2cc(C[*:1])cc(C[*:2])c2)CCN(CC(=O)[O-])CC1.[Lu+3]; tMeBn(DOTA-PP) = 1,3,5-trimethylbenzylidene, two thioethers to Cys, third CH2 bound to one N of piperazine whose other N bears DOTA, O=C(O)CN1CCN(CC(=O)O)CCN(CC(=O)N2CCN(Cc3cc(C[*:1])cc(C[*:2])c3)CC2)CCN(CC(=O)O)CC1; Ttds″ = 1,13-diamino-4,7,10-trioxatridecan-succinamic acid spacer, O=C(CCC(=O)[*:2])NCCCOCCOCCOCCCN[*:1]; Ttds = 1,13-diamino-4,7,10-trioxatridecan-succinamic acid, O=C(CCC(=O)[*:2])NCCCOCCOCCOCCCN[*:1]; 3MeBn = 3-Methylbenzylidene (m-xylylene thioether bridge from α,α′-dibromo-m-xylene); N4Ac = 6-Carboxy-1,4,8,11-tetraazaundecane, an N4-chelator, NCCNCC(CNCCN)C(=O)*; AF488 = Alexa Fluor 488 label; Nle = CCCC[C@H](N)C(=O)O; Hexanoyl = CCCCCC(=O)*; Ahx = NCCCCCC(=O)O; GABA = NCCCC(=O)O
quantity measured: pIC50

Record excerpt, results attached:
Given the entry N4Ac-E[Ttds″][Nle]CPPTEFC-OH (linker 4-10 via 3MeBn, also called 3BP-4222) [N4Ac-Glu-Ttds-Nle-[Cys-(3MeBn)-Pro-Pro-Thr-Glu-Phe-Cys]-OH] , report its measured pIC50.
7.1 to 8 pic50

Input H-[Ahx][Ttds][Nle]CPPTQFCD-NH2 (linker 4-10 via tMeBn(DOTA-PP); SMILES CCCC[C@H](NC(=O)CCC(=O)NCCCOCCOCCOCCCNC(=O)CCCCCN)C(=O)N[C@H]1CSCc2cc(cc(CN3CCN(C(=O)CN4CCN(CC(=O)O)CCN(CC(=O)O)CCN(CC(=O)O)CC4)CC3)c2)CSC[C@@H](C(=O)N[C@@H](CC(=O)O)C(N)=O)NC(=O)[C@H](Cc2ccccc2)NC(=O)[C@H](CCC(N)=O)NC(=O)[C@H]([C@@H](C)O)NC(=O)[C@@H]2CCCN2C(=O)[C@@H]2CCCN2C1=O, also called 3BP-4004) [H-Ahx-Ttds-Nle-[Cys-(tMeBn(DOTA-PP))-Pro-Pro-Thr-Gln-Phe-Cys]-Asp-NH2]
7.1 to 8 pic50

Next up:
Given the entry Hexanoyl-CPPTQFCD[GABA]R[Ttds″][Ttds″][Ttds″]K(AF488)-NH2 (linker 1-7 via tMeBn(LuDOTA-AET); also: Lu complexed by DOTA, also called 3BP-4373) [Hex-[Cys(tMeBn(LuDOTA-AET))-Pro-Pro-Thr-Gln-Phe-Cys]-Asp-Gab-Arg-Ttds-Ttds-Ttds-Lys(AF488)-NH2] , report its measured pIC50.
7.1 to 8 pic50
